- runConditions: buffer; pH 7.4; 200.0 µM
measuredEndpoint: log10 solubility kinetic (log10 of the value in µg/mL)
A difference of one corresponds to tenfold solubility kinetic; all values are log10 with solubility kinetic in µg/mL.

CS(=O)(=O)N1CCSC1c1ccc(Br)cc1 (stereo unspecified) | 1.68

Lookup: log10 solubility kinetic lookup needed for CC(C)C(=O)N1CCN(c2ccccc2NC(=O)c2ccco2)CC1 , thanks.
Found: 1.68

Lookup: Further, for Cc1ccc(C)c(OCCC(=O)OCC(=O)NC2CCCC2)c1 ?
Found: 1.64

Lookup: Further, for COc1ccc(C(=O)O/N=C(\N)Cc2ccc([N+](=O)[O-])cc2)c(OC)c1 ?
Found: 1.59

Lookup: Further, for CN1CCN(c2nc(-c3ccccc3O)nc3ccccc23)CC1 ?
Found: 0.00

Lookup: Further, for c1ccc(CCNCCOc2ccccc2)cc1 ?
Found: 1.36

----------
- runConditions: buffer; pH 7.4; 200.0 µM
So basically every entry gets a class from its solubility kinetic, ranges being low group = under 10 µg/mL, middle group = from 10 µg/mL up to 40 µg/mL, high group = 40 µg/mL and over

The following compounds have reported results that may help.
CC(=O)NCCC(=O)Nc1nc(-c2c[nH]c3ccccc23)cs1 | high group
Cc1ccc(SCC(=O)N=C2NC(=O)CS2)cc1 | middle group
O=[N+]([O-])c1ccccc1S(=O)(=O)NCCSCc1ccco1 | high group

Lookup: Which class is correct for the following compound? Cc1cc(C)nc(N2CCN(c3ccc(F)cc3)CC2)n1
Found: low group

Lookup: Further, for N#Cc1ccc(Oc2ccc(NC(=O)C3CC=CCC3C(=O)O)cc2)cc1 (stereo unspecified) ?
Found: high group

Lookup: Further, for COc1ccc(-c2cc(C(=O)N3CCCC3)c3ccccc3n2)cc1OC ?
Found: high group

Lookup: Further, for CNC(=S)Nc1cccc(-c2cnc3ccccc3n2)c1 ?
Found: high group

Lookup: Further, for COc1ccc(C(=O)NCCSc2ccccc2C)cc1 ?
Found: middle group

Lookup: Further, for O=S1(=O)CC2NC(=S)N(c3cccc(Br)c3)C2C1 (stereo unspecified) ?
Found: high group

Lookup: Further, for CC1CN(C(=O)c2ccc(NS(=O)(=O)c3ccc(C(C)(C)C)cc3)cc2)CC(C)O1 (stereo unspecified) ?
Found: high group

Lookup: Further, for CCCn1c(SCC(=O)NC2CCC(C)CC2)n[nH]c1=O (stereo unspecified) ?
Found: high group

Lookup: Further, for COc1ccc(NC(=O)c2ccc3nc[nH]c3c2)cc1 ?
Found: high group

----------
- runConditions: buffer; pH 7.4; 200.0 µM
measuredEndpoint: solubility kinetic (µg/mL)
Report the figure in µg/mL without appending any unit label.

As a guide, the following entries are already answered.
CC(C)(C)NC(=O)CSc1nc2cc(S(=O)(=O)N3CCCCC3)ccc2o1 | 3.7
CCc1ccc(NC(=O)CCc2ccc(C)o2)cc1 | 5.3
Cc1ccc(OCCCCNC(C)c2ccccc2)c(C)c1 (centres undefined) | 32.2
COc1cc(CC(=O)OCC(=O)N(C)C2CCCCC2)cc(OC)c1OC | 52.4
O=C(NCCc1ccccc1)C1CCN(Cc2cccc3ccccc23)CC1 | 6.2

Lookup: solubility kinetic lookup needed for O=C(O/N=C/c1ccc2c(c1)OCO2)c1ccc([N+](=O)[O-])cc1 , thanks.
Found: 0.9

Lookup: Further, for CC(CN1CCCC1)OC(=O)c1cccc(F)c1.Cl (centres undefined) ?
Found: 39.6

Lookup: Further, for Cc1ccc(NC(=O)C(C)OC(=O)CCC2CCCCC2)cc1 (centres undefined) ?
Found: 4.1

Lookup: Further, for CCCc1nc2sc3c(=O)[nH]cnc3c2c2c1CCCC2 ?
Found: 0.4

Lookup: Further, for Cc1ccc2c(c1)c(-c1csc(N)n1)c(C)n2C ?
Found: 13.4

Lookup: Further, for Nc1ccc2nc(-c3cccc(-c4nc5ccc(N)cc5[nH]4)n3)[nH]c2c1 ?
Found: 21.5

----------
- runConditions: buffer; pH 7.4; 200.0 µM
Kindly return MET if reported solubility kinetic is no lower than 30 µg/mL; return NOT MET if it is lower.

The following compounds have reported results that may help.
CCC(=Nc1ccccc1)C1=C(O)CCCC1=O | NOT MET
C=C(C)[C@@H]1CC=C(CN2CCN(Cc3ccccc3)CC2)CC1 | NOT MET
Cc1noc(C)c1S(=O)(=O)N(C)Cc1ccccc1 | MET
CSc1nc(=S)n(-c2cc(C)ccc2C)c(C)c1C(C)=O | MET
CSC1=NCCN1C(=O)c1ccc2ccccc2c1 | NOT MET

Lookup: Test whether the compound O=C(O)c1ccccc1SCc1csc(-c2ccccc2)n1 records solubility kinetic of 30 µg/mL or higher.
Found: MET

Lookup: Further, for CC1CCCCC1NC(=O)COc1ccccc1C#N (configuration not stated) ?
Found: MET

Lookup: Further, for Cn1cc(-c2ccccc2C(N)=O)c(=O)c2ccccc21 ?
Found: MET

Lookup: Further, for COc1cccc(C(=O)NC2CC3CCC(C2)N3Cc2ccccc2)c1 (configuration not stated) ?
Found: MET

Lookup: Further, for COC(=O)c1sc(NC(=O)c2ccncc2)nc1C ?
Found: NOT MET

Lookup: Further, for CCCCNS(=O)(=O)c1ccc2nc(SCC(N)=O)[nH]c2c1 ?
Found: MET

Lookup: Further, for COc1ccc(NC(=O)Cc2cccc3ccccc23)cc1 ?
Found: NOT MET

----------
- runConditions: buffer; pH 7.4; 200.0 µM
Attribute: solubility kinetic
Report the figure in µg/mL without appending any unit label.

As a guide, the following entries are already answered.
Cc1ccc(C(=O)Nc2ccc(C)c(S(=O)(=O)N3CCOCC3)c2)c(C)c1 | 37.9
Cc1ccccc1Cn1cc(C)c(=O)[nH]c1=O | 29.5
Cc1cccc(NC(=O)NCc2cccnc2)c1C | 35.6
COc1ccc2[nH]cc(CCNC(=O)Nc3ccccc3C)c2c1 | 10.4
O=C1CCNc2c(Cl)cccc21 | 20.9
O=C(NC(=S)Nc1ccccc1Cl)c1ccco1 | 2.5
Cc1cccc(CSCc2ccc(C(=O)NC3CCCC3)o2)c1 | 25.6
COc1ccc(NS(=O)(=O)c2ccc(F)cc2F)cn1 | 43.3

Lookup: solubility kinetic lookup needed for Cc1cccc(C)c1OCC(=O)Nc1ccc2c(c1)OCCO2 , thanks.
Found: 23.5

Lookup: Further, for O=C(Cn1c(=O)oc2ccccc21)NCCc1ccccc1 ?
Found: 44

Lookup: Further, for COc1ccc(-c2csc(Nc3ccccn3)n2)cc1OC ?
Found: 5.5

Lookup: Further, for CC1(C)CC(=O)N(c2ccc(Cl)c(Cl)c2)C(=O)C1 ?
Found: 9.6

----------
- runConditions: buffer; pH 7.4; 200.0 µM
Attribute: solubility kinetic
Report the figure in µg/mL without appending any unit label.

CCOC(=O)CSc1nc(-c2ccccc2)ns1 | 6.3
O=C(NCc1ccc2c(c1)OCO2)c1cccnc1Cl | 37.9
COC(=O)c1ccccc1NC(=O)CN1CCC(C)CC1 | 30.8
Cc1cc(C)cc(OC(C)C(=O)NCCCn2ccnc2)c1 (centres undefined) | 33.4
O=C(NCc1cccnc1)C(=O)C1C(=O)Nc2ccccc21 (centres undefined) | 42.5
COc1ccc(CNC(=O)C(Cc2ccccc2)n2cccc2)cc1 (centres undefined) | 7.8
Cc1cccc(-n2ccnc2CN2CCN(C(C)C)C(CCO)C2)c1 (centres undefined) | 49.7
Cc1cc(C)cc(N2CC(O)Cn3c2nc2c3c(=O)[nH]c(=O)n2C)c1 (centres undefined) | 34.3

Query compound follows.
Lookup: solubility kinetic lookup needed for Cc1cc(SCC(=O)c2ccc(O)c(O)c2)nc2ccccc12 , thanks.
Found: 3.5

----------
- runConditions: buffer; pH 7.4; 200.0 µM
Attribute: log10 of solubility kinetic
A difference of one corresponds to tenfold solubility kinetic; all values are log10 with solubility kinetic in µg/mL.

As a guide, the following entries are already answered.
O=C(COC(=O)c1ccccc1Br)Nc1ccccc1F | 0.73
Cc1cccc(OCCCn2c(=O)oc3ccccc32)c1 | 0.66
O=C(Nc1ccc(OC(F)(F)F)cc1)c1ccc2nc[nH]c2c1 | 1.17
O=C(CN1CCC(NC(=O)Nc2ccccc2)CC1)Nc1ccccc1F | 1.24
COc1ccccc1NC(=O)N1CCC(c2nc3ccccc3o2)CC1 | 1.65
CC1CCOC2(O1)C(=O)Nc1ccccc12 (stereo not given) | 1.39

Lookup: log10 of solubility kinetic lookup needed for C=CCn1c(=O)c2c(nc3n2CCCN3Cc2ccccc2)n(C)c1=O , thanks.
Found: 1.29

Lookup: Further, for Cc1ccc(S(=O)(=O)c2c[nH]c3cc4c(cc3c2=O)OCO4)cc1 ?
Found: 0.30

Lookup: Further, for COc1ccc(-c2cncnc2-c2ccc(OC)cc2O)cc1 ?
Found: 1.59

Lookup: Further, for CN(C)S(=O)(=O)c1cc(NC(=O)COC(=O)c2nc(Cl)ccc2Cl)ccc1Cl ?
Found: 1.72

Lookup: Further, for OC(COc1ccc(Cl)cc1Cl)Cn1ccnc1 (stereo not given) ?
Found: 1.60

Lookup: Further, for O=C(Cc1ccc(Cl)cc1)N1CCN(c2ccc(F)cc2)CC1 ?
Found: 1.28

Lookup: Further, for O=C(Nc1ccc2c(c1)OCO2)C1CC(c2ccccc2O)=NO1 (stereo not given) ?
Found: 0.15

Lookup: Further, for CCc1ccc(CNCc2cccs2)cc1.Cl ?
Found: 1.38

Lookup: Further, for COc1cc(C(=O)OCC#N)ccc1OCc1c(C)noc1C ?
Found: 0.60
